Could you please report measured growth for the items listed next?
Test system: RPMI-8226 leukemia
Protocol details: NCI-60 one-dose screen, 48 h (100 = growth as untreated, 0 = no growth, -100 = all killed)
Setup conditions: 10 µM unless noted
About 83,000 compounds went through this panel and 20% of them were active in at least one assay; those are over-represented in the sample as a whole. The source made the active and inactive calls. The calls were made as follows: active = growth percent below 10; inactive = the rest.

Entry `NC/C(=C/F)COc1ccc2nc(NCc3cccnc3)oc2c1` , growth reported as 120% (inactive)

// growth lookup, compound = Cc1ccc2sc3c(c2c1)OC(N)=C(C#N)C3c1cccc(F)c1 (stereo not given) , result: 14.4% (inactive)

growth reading for `COc1cccc(N2CCN(c3ncnc4c3[nH]c3ccc(F)cc34)C[C@H]2C)c1` : 19.2% (inactive)

Documented growth of `CS(=O)(=O)Nc1cc(-c2ccc3ncc(C#N)c(N[C@H](CO)c4ccccc4)c3c2)cnc1Cl` : 64.2% (inactive)

growth recorded for this compound, O=C(NNc1nc2cc(F)ccc2n2c(CN3CCC(O)C3)ccc12)c1cnccn1 (stereo not given) , is 27.4% (inactive)

growth reading for CCO/C=N/C1=C(C#N)C(c2ccc(OC)cc2)c2sc3c(CC)cccc3c2O1 (stereo not given) : 12.7% (inactive)

Field growth (entry `O=C(O)c1ccc(-n2cc(CNc3cc(F)c(F)c(F)c3)c(-c3ccc(F)cc3)n2)cc1` ) reads 76.3% (inactive)

Note to self: growth recorded for `CN(C)CCNC(=O)c1ccc(-c2nc3ccc4[nH]ncc4c3c3c2COCC3)cc1` was 44.3% (inactive)

growth in this record for COC(=O)C(Cc1ccccc1)Nc1nc(NC(Cc2ccccc2)C(=O)OC)nc(N2CCOCC2)n1 (stereo not given) : 98.5% (inactive)

# growth (compound: `COc1cc(Cn2cc3c(c2)-c2onc(CN4CCCC4)c2CC3)cc(OC)c1OC` ) is 88% (inactive)

The reported measurements were obtained from PubChem BioAssay (NCI).
